Known CC50 of a selection of compounds
System: SK-BR-3
runDescription: Cytotoxicity against human SKBR3 cells after 48 hrs by SRB assay
Format: functional
runConditions: SK-BR-3, 48 h, read-out: LC50 (the source's name)
State the answer as a number, implicitly in nM.

# example entries with known answers
Can you share its CC50? I mean this compound: CC[C@@H](C)[C@@H](NC(=O)[C@H](CCCN)NC(=O)[C@H]1CCCN1C(=O)[C@H](NC(=O)[C@@H](NC(=O)[C@@H](NC(=O)[C@H](NC(=O)CCCC(C)C)C(C)C)[C@@H](C)O)C(C)C)C(C)C)C(=O)N[C@H]1C(=O)N[C@H]([C@H](C)CC)C(=O)N[C@H](C(C)C)C(=O)N[C@@H](Cc2ccccc2)C(=O)NCC(=O)N[C@@H](C(C)C)C(=O)O[C@H]1C 683

Can you share its CC50? I mean this compound: C/C=C1\NC(=O)[C@H](Cc2ccccc2Cl)NC(=O)[C@@H](C(C)C)NC(=O)[C@@H]([C@H](C)CC)NC(=O)[C@H](NC(=O)[C@H](NC(=O)[C@H](CCCN)NC(=O)[C@H]2CCCN2C(=O)[C@H](NC(=O)[C@@H](NC(=O)[C@@H](NC(=O)[C@H](NC(=O)CCCC(C)C)C(C)C)[C@@H](C)O)C(C)C)C(C)C)[C@H](C)CC)[C@H](C)OC(=O)[C@H](C(C)C)NC1=O 111

Can you share its CC50? I mean this compound: C/C=C1\NC(=O)[C@H](Cc2ccccc2)NC(=O)[C@@H](C(C)C)NC(=O)[C@@H]([C@H](C)CC)NC(=O)[C@H](NC(=O)[C@H](NC(=O)[C@H](CCCN)NC(=O)[C@H]2CCCN2C(=O)[C@H](NC(=O)[C@@H](NC(=O)[C@@H](NC(=O)[C@@H](CC2CCCCC2)NC(=O)CCCC(C)C)[C@@H](C)O)C(C)C)C(C)C)[C@H](C)CC)[C@H](C)OC(=O)[C@H](C(C)C)NC1=O 4990

Can you share its CC50? I mean this compound: C/C=C1\NC(=O)[C@H](Cc2ccccc2)NC(=O)[C@@H](C(C)C)NC(=O)[C@@H]([C@H](C)CC)NC(=O)[C@H](NC(=O)[C@H](NC(=O)[C@H](CCCN)NC(=O)[C@H]2CCCN2C(=O)[C@H](NC(=O)[C@H](NC(=O)[C@@H](NC(=O)[C@H](NC(=O)CCCC(C)C)C(C)C)[C@@H](C)O)C(C)C)C(C)C)[C@H](C)CC)[C@H](C)OC(=O)[C@H](C(C)C)NC1=O 2310

// moving on: another record for CC50
Can you share its CC50? I mean this compound: C/C=C1\NC(=O)[C@H](Cc2ccccc2)NC(=O)[C@@H](CCC2CCCCC2)NC(=O)[C@@H](CCC2CCCCC2)NC(=O)[C@H](NC(=O)[C@@H](CCC2CCCCC2)NC(=O)[C@H](CCCN)NC(=O)[C@H]2CCCN2C(=O)[C@H](NC(=O)[C@@H](NC(=O)[C@@H](NC(=O)[C@H](NC(=O)CCCC(C)C)C(C)C)[C@@H](C)O)C(C)C)C(C)C)[C@H](C)OC(=O)[C@H](C(C)C)NC1=O 87.8
